assay: Cytotoxicity assay (CCK-8) against breast cancer cell line MCF-7; format: cell-based, human; conditions: human, MCF-7 breast cancer cells (ATCC HTB-22), MCF-7, 48 h, read-out: IC50 value, cytotoxicity against MCF-7
reported-endpoint: IC50 at 48 h (µM)
Output spec: scalar in µM, unitless text.

Task: State the recorded IC50 at 48 h for this entry: C[C@]12CCC3=C(C(=O)c4occ5c4[C@]3(C)CCC5=O)[C@@H]1CC[C@@H]2O [Compound 7]
Result: 15

----------
biological target: PI3K gamma kinase (Homo sapiens)
Sequence (P48736 whole entry): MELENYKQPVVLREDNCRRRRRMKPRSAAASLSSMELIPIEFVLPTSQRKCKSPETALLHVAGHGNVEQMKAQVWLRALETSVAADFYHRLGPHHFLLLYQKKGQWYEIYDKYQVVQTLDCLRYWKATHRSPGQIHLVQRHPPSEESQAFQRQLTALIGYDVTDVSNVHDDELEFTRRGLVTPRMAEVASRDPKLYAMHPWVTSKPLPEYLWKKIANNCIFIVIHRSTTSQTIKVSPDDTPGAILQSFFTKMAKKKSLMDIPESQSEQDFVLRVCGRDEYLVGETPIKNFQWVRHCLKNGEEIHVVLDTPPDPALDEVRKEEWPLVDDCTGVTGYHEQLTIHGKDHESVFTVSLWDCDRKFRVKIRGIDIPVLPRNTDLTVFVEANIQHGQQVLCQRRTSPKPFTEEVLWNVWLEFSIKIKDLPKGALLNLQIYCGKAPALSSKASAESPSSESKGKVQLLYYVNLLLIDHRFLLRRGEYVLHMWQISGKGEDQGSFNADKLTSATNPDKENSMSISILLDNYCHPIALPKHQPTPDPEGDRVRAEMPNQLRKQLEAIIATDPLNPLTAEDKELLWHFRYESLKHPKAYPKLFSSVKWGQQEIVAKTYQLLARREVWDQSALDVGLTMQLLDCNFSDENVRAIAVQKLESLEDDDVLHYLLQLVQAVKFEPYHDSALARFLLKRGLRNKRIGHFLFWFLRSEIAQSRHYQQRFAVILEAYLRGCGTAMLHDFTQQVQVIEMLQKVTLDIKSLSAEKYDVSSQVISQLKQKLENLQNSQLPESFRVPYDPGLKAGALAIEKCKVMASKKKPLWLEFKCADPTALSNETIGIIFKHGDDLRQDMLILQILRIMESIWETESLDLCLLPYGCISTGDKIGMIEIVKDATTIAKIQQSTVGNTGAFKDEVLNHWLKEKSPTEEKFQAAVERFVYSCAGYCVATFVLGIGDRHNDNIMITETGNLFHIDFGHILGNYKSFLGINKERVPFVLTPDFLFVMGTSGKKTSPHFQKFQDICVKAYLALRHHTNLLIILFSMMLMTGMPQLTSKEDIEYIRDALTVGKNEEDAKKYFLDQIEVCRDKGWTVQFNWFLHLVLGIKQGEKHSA
pIC50: −log10 of the molar value.
Could you label it label 1 if measured pIC50 is 7 or higher, and label 0 otherwise?

# example entries with known answers
C[C@]12CCC(=O)c3coc(c31)C(=O)c1c2ccc2c1CCC2=O [Compound 3, dehydroxydemethoxyviridin]	label 0
C[C@@]12c3ccc4c(c3C(=O)c3occ(c31)[C@@H](O)C[C@H]2O)CCC4=O	label 0
C[C@]12CCC3=C(C(=O)c4occ5c4[C@]3(C)CCC5=O)[C@@H]1CC[C@@H]2O	label 1
C[C@@]12c3ccc4c(c3C(=O)c3occ(c31)C(=O)C[C@H]2O)CCC4=O	label 1

Task: # check: pIC50 of CC(=O)[C@H]1CC[C@H]2C3=C(CC[C@]12C)[C@@]1(C)CCC(=O)c2coc(c21)C3=O is greater than or equal to 7
Result: label 0

----------
experiment: Cytotoxicity assay (CCK-8) against breast cancer cell line MCF-7; type: cell-based, human; details: human, MCF-7 breast cancer cells (ATCC HTB-22), MCF-7, 48 h, three replicates, read-out: IC50 value, cytotoxicity against MCF-7 (Supplementary Figure 9b)
reported-endpoint: IC50 at 48 h (µM)
Output spec: scalar in µM, unitless text.

Task: State the recorded IC50 at 48 h for this entry: C[C@@]12c3ccc4c(c3C(=O)c3occ(c31)[C@@H](O)C[C@H]2O)CCC4=O [Compound 2, demethoxyviridiol]
Result: 37.3
